Value source: paper PMC8066157

- Tested on: WNV
- Type: cell-based, west Nile virus
pEC50: −log10 of the molar value.
METRIC_NAME: pEC50

• C[C@@]1(O)[C@H](O)[C@@H](CO)O[C@H]1n1cnc2c(=O)[nH]c(N)nc21 = 6.40

* * *

- System: MDBK cells
- EXPERIMENTAL_PROTOCOL: Cytotoxicity in mock-infected MDBK cells (MTT)
- MEASUREMENT_PARAMETERS: read-out: CC50 MDBK; mock-infected MDBK cells, MTT; pure compounds
METRIC_NAME: CC50

* C=C(C)[C@H]1CC=C(C)CC1 | > 100 µM
* C[C@@]1(O)[C@H](O)[C@@H](CO)O[C@H]1n1cnc2c(=O)[nH]c(N)nc21 | > 100 µM
* C/C1=C\CC/C(C)=C/CC(C)(C)/C=C/C1 | > 100 µM

* * *

- EXPERIMENTAL_PROTOCOL: Cytotoxicity in mock-infected MDBK cells (MTT)
- MEASUREMENT_PARAMETERS: bovine (Bos taurus), mock-infected MDBK cells (Madin-Darby bovine kidney)
METRIC_NAME: CC50

- C=C1CCC2CC1C2(C)C (centres unmarked): > 100 µM
- CC12CCC(CC1)C(C)(C)O2: > 100 µM
- C=C1C2CCC(C2)C1(C)C (centres unmarked): > 100 µM
- CC12CCC(CC1=O)C2(C)C (centres unmarked): > 100 µM
- C=C1CC/C=C(\C)CC[C@@H]2[C@@H]1CC2(C)C [Trans-Caryophyllene]: > 100 µM

* * *

- EXPERIMENTAL_PROTOCOL: in vitro
- MEASUREMENT_PARAMETERS: monkey (Cercopithecus aethiops)
METRIC_NAME: CC50 (µM)

- O=c1cnn([C@@H]2O[C@H](CO)[C@@H](O)[C@H]2O)c(=O)[nH]1 [6-Aza-Uridine]: 4

* * *

- Tested on: BHK cells
METRIC_NAME: CC50 (µM)

- C[C@@]1(O)[C@H](O)[C@@H](CO)O[C@H]1n1cnc2c(=O)[nH]c(N)nc21: 60

* * *

- Tested on: CV-B5
- EXPERIMENTAL_PROTOCOL: organism not typed
- Assay type: cell-based, coxsackie type B5
- MEASUREMENT_PARAMETERS: Vero 76, read-out: EC50 CV-B5
pEC50: −log10 of the molar value.
METRIC_NAME: pEC50

• Cc1cc(CCCOc2c(C)cc(-c3noc(C(F)(F)F)n3)cc2C)on1 = 8.30
